- Tested on: myasthenogenic antibody mAB 198
- Assay Explanation: Peptide microarray mimotope screen, binding of mAB 198 to linear and cyclic peptides (fluorescence readout)
- Set-up: species or system rat
- Study Conditions: cyclic mimotopes; binding of mAB 198, relative fluorescent signal after normalization against background
Would you mind telling me the reported relative signal [%] of each entry?
Write down the numeric answer in % and omit the unit.

Tested on myasthenogenic antibody mAB 198: 151 (VNPADYG) [compound 151] . Observed relative signal [%]: 12.5

Tested on myasthenogenic antibody mAB 198: 112 (LRLNPADYG) [compound 112] . Observed relative signal [%]: 28.6

Tested on myasthenogenic antibody mAB 198: 141 (SLRGNPADY) [compound 141] . Observed relative signal [%]: 15.4

Tested on myasthenogenic antibody mAB 198: 133 (WNPADYP) [compound 133] . Observed relative signal [%]: 21.1

Tested on myasthenogenic antibody mAB 198: 194 (DVRLRQNPADY) [compound 194] . Observed relative signal [%]: 8.8

Tested on myasthenogenic antibody mAB 198: 103 (LRVNPADYG) [compound 103] . Observed relative signal [%]: 45.1

Tested on myasthenogenic antibody mAB 198: 153 (RPRWNPADY) [compound 153] . Observed relative signal [%]: 12.4

Tested on myasthenogenic antibody mAB 198: 107 (RLRLNPADY) [compound 107] . Observed relative signal [%]: 37.3

Tested on myasthenogenic antibody mAB 198: 179 (LRPNPADYG) [compound 179] . Observed relative signal [%]: 10.0

Tested on myasthenogenic antibody mAB 198: 123 (RGNPADY) [compound 123] . Observed relative signal [%]: 23.8

Tested on myasthenogenic antibody mAB 198: 110 (DVRLRVNPADY) [compound 110] . Observed relative signal [%]: 30.2

Tested on myasthenogenic antibody mAB 198: 115 (DVRLRFNPADY) [compound 115] . Observed relative signal [%]: 27.7

Tested on myasthenogenic antibody mAB 198: 200 (GGSLRLNPADY) [compound 200] . Observed relative signal [%]: 8.5

Tested on myasthenogenic antibody mAB 198: 131 (DVRLRPNPADY) [compound 131] . Observed relative signal [%]: 21.3

Tested on myasthenogenic antibody mAB 198: 121 (WNPADYR) [compound 121] . Observed relative signal [%]: 24.9

Tested on myasthenogenic antibody mAB 198: 188 (SLYWNPADY) [compound 188] . Observed relative signal [%]: 9.4

Tested on myasthenogenic antibody mAB 198: 172 (LRWNPADYR) [compound 172] . Observed relative signal [%]: 10.3

Tested on myasthenogenic antibody mAB 198: 147 (SLRFNPADY) [compound 147] . Observed relative signal [%]: 13.6

Tested on myasthenogenic antibody mAB 198: 136 (NPADYGR) [compound 136] . Observed relative signal [%]: 19.5

Tested on myasthenogenic antibody mAB 198: 101 (VRLRWNPADYP) [compound 101] . Observed relative signal [%]: 100.0

Tested on myasthenogenic antibody mAB 198: 145 (RLYWNPADY) [compound 145] . Observed relative signal [%]: 13.7

Tested on myasthenogenic antibody mAB 198: 165 (QLRWNPADY) [compound 165] . Observed relative signal [%]: 10.7

Tested on myasthenogenic antibody mAB 198: 189 (LRGNPAD) [compound 189] . Observed relative signal [%]: 9.1

Tested on myasthenogenic antibody mAB 198: 161 (GGSLRYNPADY) [compound 161] . Observed relative signal [%]: 11.5

Tested on myasthenogenic antibody mAB 198: 196 (GSLRWNPADYT) [compound 196] . Observed relative signal [%]: 8.7

Tested on myasthenogenic antibody mAB 198: 158 (RPNPADYGG) [compound 158] . Observed relative signal [%]: 11.9

Tested on myasthenogenic antibody mAB 198: 109 (DVRLRINPADY) [compound 109] . Observed relative signal [%]: 31.4

Tested on myasthenogenic antibody mAB 198: 126 (RINPADYGG) [compound 126] . Observed relative signal [%]: 23.1

Taken from patent US20230381328A1.
